# experimental-target: PB2 CBD (Influenza A virus, UniProt P31345)
# Sequence (P31345 318-483 limits assumed): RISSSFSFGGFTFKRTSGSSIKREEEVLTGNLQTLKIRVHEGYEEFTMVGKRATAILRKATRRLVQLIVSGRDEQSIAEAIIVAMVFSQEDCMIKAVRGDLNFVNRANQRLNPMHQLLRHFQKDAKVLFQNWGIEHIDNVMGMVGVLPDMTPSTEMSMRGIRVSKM
assay-metric: Kd
Could you write the number and then its unit?

Report Kd for Cn1c[n+]([C@@H]2O[C@H](COP(=O)([O-])OP(=O)(O)OP(=O)(O)O)[C@@H](O)[C@H]2O)c2nc(N)[nH]c(=O)c21 [m^7GTP] tested on PB2 CBD (Influenza A virus, UniProt P31345). 2.8 µM

Every entry's value here was drawn from paper PMC10739838.
